# STUDY_TARGET: h5-HT4b (Homo sapiens, UniProt Q13639)
# Construct: expressed in transfected cells; host or cells: HEK 293 (clone 9), membrane preparation
# Sequence (Q13639 whole entry): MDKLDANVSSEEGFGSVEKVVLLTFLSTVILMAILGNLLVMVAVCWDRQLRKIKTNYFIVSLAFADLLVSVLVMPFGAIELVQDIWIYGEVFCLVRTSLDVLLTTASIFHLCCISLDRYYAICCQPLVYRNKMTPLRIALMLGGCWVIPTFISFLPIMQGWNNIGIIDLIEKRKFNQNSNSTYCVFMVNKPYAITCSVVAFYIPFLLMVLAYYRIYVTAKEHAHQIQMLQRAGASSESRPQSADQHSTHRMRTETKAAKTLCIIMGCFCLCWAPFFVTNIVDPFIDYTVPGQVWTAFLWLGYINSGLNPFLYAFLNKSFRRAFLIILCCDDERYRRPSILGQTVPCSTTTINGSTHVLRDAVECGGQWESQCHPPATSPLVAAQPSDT
# EXPERIMENT_NOTES: 5HT4 antagonism: [3H]GR113808 binding to membranes of h5-HT4b-HEK 293 clone 9 cells
# CONDITION_PARAMETERS: displacement of [3H]GR113808 0.1 nM, h5-HT4b-HEK 293 membranes, 30 min at 25° C.; read-out: pIC50 (5HT4 antagonistic data) (converted)
METRIC: IC50 (µM)

Take a look at these entries with their results.
Report IC50 on h5-HT4b (Homo sapiens, UniProt Q13639) for this entry: CNc1cc2c(c(C(=O)NC[C@@H]3CCN(CCOCCO)C[C@H]3O)c1)OCCCO2 [compound 67]
0.479

Fill: IC50 (h5-HT4b (Homo sapiens, UniProt Q13639)) for this molecule Nc1cc(C(=O)NC[C@@H]2CCN(CCCC(=O)O)C[C@H]2O)c2c(c1Cl)OCCO2 [compound 25]
0.138

Recall the reported IC50 of Cc1cc2c(c(C(=O)NC[C@@H]3CCN(CCC4OCCO4)C[C@H]3O)c1)OCCCO2 [compound 163] on h5-HT4b (Homo sapiens, UniProt Q13639) and write it down.
0.00229

[1] CO[C@@H]1CN(CCCC#N)CC[C@H]1CNC(=O)c1cc(C#N)cc2c1OCCCO2 [compound 208]
[2] CC(C)Nc1cc2c(c(C(=O)NC[C@@H]3CCN(CCCC#N)C[C@H]3O)c1)OCCCO2 [compound 172]
[3] Cc1cc2c(c(C(=O)NC[C@@H]3CCN(CCCC(=O)N4CCCC4)C[C@H]3O)c1)OCCCO2 [compound 224]
[4] COCc1cc2c(c(C(=O)NC[C@@H]3CCN(CCC4OCCO4)C[C@H]3O)c1)OCCCO2 [compound 126]
[5] COCCN1CC[C@@H](CNC(=O)c2cc(N)c(Cl)c3c2OCCCO3)[C@H](O)C1 [compound 79]
Please give the order of these molecules when sorted by IC50, largest value leading. Output spec: labels arranged per the requested ranking.
2, 5, 4, 1, 3

[P] CC(=O)CCCN1CC[C@@H](CNC(=O)c2cc(N)c(Cl)c3c2OCCCO3)[C@H](O)C1 [compound 80]
[Q] CNc1cc2c(c(C(=O)NC[C@@H]3CCN(Cc4ccc(F)cc4)C[C@H]3O)c1)OCCO2 [compound 56]
[R] CCCCN1CC[C@@H](CNC(=O)c2cc(NC(C)C)cc3c2OCCCO3)[C@H](O)C1 [compound 174]
[S] CNc1cc(C(=O)NC[C@@H]2CCNC[C@H]2O)c2c(c1Cl)OCCO2 [compound 105]
Rank the items in ascending order with respect to IC50. Return value: ordered labels per request.
P, Q, R, S
